Target: 1-phosphatidylinositol 4,5-bisphosphate phosphodiesterase gamma-1 (Homo sapiens) (UniProt P19174)
Sequence (P19174 whole entry, looked up): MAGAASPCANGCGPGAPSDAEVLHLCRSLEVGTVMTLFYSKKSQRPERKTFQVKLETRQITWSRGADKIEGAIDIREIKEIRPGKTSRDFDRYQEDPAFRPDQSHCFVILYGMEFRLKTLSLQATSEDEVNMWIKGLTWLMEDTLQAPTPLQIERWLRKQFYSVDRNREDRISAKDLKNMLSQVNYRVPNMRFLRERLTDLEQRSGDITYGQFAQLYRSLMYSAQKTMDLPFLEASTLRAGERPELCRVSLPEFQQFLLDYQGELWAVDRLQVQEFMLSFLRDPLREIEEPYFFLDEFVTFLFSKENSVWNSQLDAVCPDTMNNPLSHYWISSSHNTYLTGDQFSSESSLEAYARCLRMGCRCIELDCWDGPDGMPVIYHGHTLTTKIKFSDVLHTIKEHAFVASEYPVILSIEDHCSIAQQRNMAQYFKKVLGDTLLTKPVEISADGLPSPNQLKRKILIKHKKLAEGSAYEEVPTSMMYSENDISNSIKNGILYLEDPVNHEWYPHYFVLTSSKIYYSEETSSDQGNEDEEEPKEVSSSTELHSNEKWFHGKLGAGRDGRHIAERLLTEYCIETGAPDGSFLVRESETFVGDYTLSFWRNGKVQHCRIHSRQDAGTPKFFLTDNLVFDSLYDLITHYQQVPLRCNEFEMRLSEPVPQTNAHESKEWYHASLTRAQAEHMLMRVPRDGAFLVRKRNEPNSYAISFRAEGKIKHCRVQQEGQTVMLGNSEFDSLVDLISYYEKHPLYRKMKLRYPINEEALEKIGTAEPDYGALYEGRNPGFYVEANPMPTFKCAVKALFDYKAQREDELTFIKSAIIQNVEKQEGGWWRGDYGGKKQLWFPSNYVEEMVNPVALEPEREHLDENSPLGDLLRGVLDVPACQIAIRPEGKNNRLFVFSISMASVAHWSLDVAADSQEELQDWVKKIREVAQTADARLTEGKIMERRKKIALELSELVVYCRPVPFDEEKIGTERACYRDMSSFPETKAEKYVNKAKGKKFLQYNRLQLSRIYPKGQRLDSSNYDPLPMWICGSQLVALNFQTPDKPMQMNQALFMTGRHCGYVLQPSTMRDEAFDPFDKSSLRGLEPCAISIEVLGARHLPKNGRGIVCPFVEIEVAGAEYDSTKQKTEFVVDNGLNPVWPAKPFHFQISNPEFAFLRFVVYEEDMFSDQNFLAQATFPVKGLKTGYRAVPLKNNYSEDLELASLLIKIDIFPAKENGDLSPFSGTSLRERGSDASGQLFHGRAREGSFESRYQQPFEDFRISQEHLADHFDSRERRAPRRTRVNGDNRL
Assay: PLC-gamma1 enzyme inhibitors, primary screen, biochemical, fluorescence, purified enzyme (AID 720700)
Details: purified PLC-gamma1, fluorogenic substrate, at 12.2 µM, hits give high values
About 3,100 (0.84%) of roughly 370,000 compounds were called active. The sample as a whole holds a higher share of actives than the screen did.
outcomeMeasure: inhibition (%)

molecule | outcomeMeasure | measuredValue
CCOc1ccc(NC(=O)[C@H](C)NC(=O)C2CC(=O)N(c3ccc(OC)cc3)C2)cc1 (stereo not given in full) | inhibition | 9.63
Cn1c(=O)n(C)c2cc(NS(=O)(=O)c3ccc(F)cc3)ccc21 | inhibition | 0.25
Cc1cc(C(=O)NNC(=O)c2cccc(S(=O)(=O)N3CCOCC3)c2)c2ccccc2n1 | inhibition | 1.34
O=C(Nc1ccc(S(=O)(=O)N2CCOCC2)cc1)c1ccc2ncsc2c1 | inhibition | -4.28
Cc1ccnc(SCC(=O)Nc2cccc(S(=O)(=O)N3CCOCC3)c2)n1 | inhibition | 1.32
COc1cccc(CSc2nnc(-c3cccnc3)n2Cc2ccccc2)c1 | inhibition | -0.88
O=S(=O)(Nc1ncccn1)c1ccc(NS(=O)(=O)c2cccc(Cl)c2Cl)cc1 | inhibition | 4.05
Cc1nc2ccc(NC(=O)c3cccc(S(=O)(=O)N4CCOCC4)c3)cc2s1 | inhibition | 14
O=C(CSc1ccccc1)Nc1cccc(S(=O)(=O)N2CCOCC2)c1 | inhibition | 11.5
O=S(=O)(Nc1ccc(Oc2ncccn2)c(Cl)c1)c1ccc(F)cc1 | inhibition | 9.74
